PROTOCOL: Adsorption of liquid ethanol or acetic acid on saccharide powder (Example C-1)
Format: physicochemical
TEST_PARAMETERS: acetic acid adsorbed on 1 g of saccharide, until mixture did not keep a powder form
OUTCOME_MEASURE: Amount of Adsorbed Acetic Acid

COMPOUND	READOUT_VALUE
OCC1OC2OCC3O[C@H](O[C@H]4C(O)C(CO)OC(OCC5O[C@H](O[C@@H](C1O)C2O)C(O)C(O)[C@@H]5O)C4O)C(O)C(O)[C@@H]3O (some centres unmarked) [CTS crystalline monohydrate]	0.35 g
OCC1OC2OCC3O[C@H](O[C@H]4C(O)C(CO)OC(OCC5O[C@H](O[C@@H](C1O)C2O)C(O)C(O)[C@@H]5O)C4O)C(O)C(O)[C@@H]3O (some centres unmarked) [CTS crystalline anhydrate]	0.47 g
OC[C@H]1O[C@H](O[C@H]2O[C@H](CO)[C@@H](O)[C@H](O)[C@H]2O)[C@H](O)[C@@H](O)[C@@H]1O [Anhydrous trehalose, reference compound]	0.18 g
OCC1OC2OCC3O[C@H](O[C@H]4C(O)C(CO)OC(OCC5O[C@H](O[C@@H](C1O)C2O)C(O)C(O)[C@@H]5O)C4O)C(O)C(O)[C@@H]3O (some centres unmarked) [CTS crystalline pentahydrate]	0.27 g
OCC1OC2OCC3O[C@H](O[C@H]4C(O)C(CO)OC(OCC5O[C@H](O[C@@H](C1O)C2O)C(O)C(O)[C@@H]5O)C4O)C(O)C(O)[C@@H]3O (some centres unmarked) [CTS amorphous anhydrate]	0.47 g
